biological target: αCOPI-WD40 domain (residues 1-327) (Schizosaccharomyces pombe, UniProt Q96WV5, F197K/I192K/L181K/L185K/L196K); assay: biochemical; type: binding; details: pH 6.5
propertyMeasured: Binding to αCOPI-WD40 (in words)

1) GVALHYT	abolished binding
2) GVKLAYT	abolished binding

----------
molecular target: αCOPI-WD40 domain (residues 1-327) (Schizosaccharomyces pombe, UniProt Q96WV5, F197K/I192K/L181K/L185K/L196K); assay: biochemical; format: binding; conditions: Equilibrium KD
Peptide text beside a SMILES is read from it.
Below, each entry is listed alongside its reported Kd.
propertyMeasured: Kd (µM)

1) CC(C)C[C@H](NC(=O)[C@H](CCCCN)NC(=O)[C@@H](NC(=O)CN)C(C)C)C(=O)N[C@@H](Cc1c[nH]cn1)C(=O)N[C@@H](Cc1ccc(O)cc1)C(=O)N[C@@H](CCCNC(=N)N)C(=O)O [GVKLHYR] (H-GVKLHYR-OH)	1.73
2) CC(C)C[C@H](NC(=O)[C@H](CCCCN)NC(=O)[C@@H](NC(=O)CN)C(C)C)C(=O)N[C@@H](Cc1c[nH]cn1)C(=O)N[C@@H](Cc1ccc(O)cc1)C(=O)N[C@@H](CCC(N)=O)C(=O)O [GVKLHYQ] (H-GVKLHYQ-OH)	0.78

----------
molecular target: αCOPI-WD40 domain (residues 1-327) (Schizosaccharomyces pombe, UniProt Q96WV5, F197K/I192K/L181K/L185K/L196K); test: biochemical; type: binding; details: pH 6.5
Peptide text beside a SMILES is read from it.
propertyMeasured: kon

1) CC(C)C[C@H](NC(=O)[C@H](CCCCN)NC(=O)[C@@H](NC(=O)CN)C(C)C)C(=O)N[C@@H](Cc1c[nH]cn1)C(=O)N[C@@H](Cc1ccc(O)cc1)C(=O)N[C@H](C(=O)O)[C@@H](C)O [GVKLHYT] (H-GVKLHYT-OH)	152.13 ± 3.45 10^3/Ms
2) CC(C)C[C@H](NC(=O)[C@H](CCCCN)NC(=O)[C@@H](NC(=O)CN)C(C)C)C(=O)N[C@@H](Cc1c[nH]cn1)C(=O)N[C@@H](Cc1ccc(O)cc1)C(=O)N[C@@H](C)C(=O)O [GVKLHYA] (H-GVKLHYA-OH)	66.67 ± 0.80 10^3/Ms
3) CC(C)C[C@H](NC(=O)[C@H](CCCCN)NC(=O)[C@@H](NC(=O)CN)C(C)C)C(=O)N[C@@H](Cc1c[nH]cn1)C(=O)N[C@@H](C)C(=O)N[C@H](C(=O)O)[C@@H](C)O [GVKLHAT] (H-GVKLHAT-OH)	120.87 ± 3.39 10^3/Ms
4) CC(C)C[C@H](NC(=O)[C@H](CCCCN)NC(=O)[C@@H](NC(=O)CN)C(C)C)C(=O)N[C@@H](Cc1c[nH]cn1)C(=O)N[C@@H](Cc1ccc(O)cc1)C(=O)N[C@@H](CCC(=O)O)C(=O)O [GVKLHYE] (H-GVKLHYE-OH)	58.96 ± 0.54 10^3/Ms
5) CC(C)C[C@H](NC(=O)[C@H](CCCCN)NC(=O)[C@@H](NC(=O)CN)C(C)C)C(=O)N[C@@H](Cc1c[nH]cn1)C(=O)N[C@@H](Cc1ccc(O)cc1)C(=O)N[C@H](C(=O)O)C(C)C [GVKLHYV] (H-GVKLHYV-OH)	102.67 ± 2.61 10^3/Ms
6) CC(C)C[C@H](NC(=O)[C@H](CCCCN)NC(=O)[C@@H](NC(=O)CN)C(C)C)C(=O)N[C@@H](Cc1c[nH]cn1)C(=O)N[C@@H](Cc1ccc(O)cc1)C(=O)N[C@@H](CCC(N)=O)C(=O)O [GVKLHYQ] (H-GVKLHYQ-OH)	60.05 ± 0.75 10^3/Ms

----------
biological target: αCOPI-WD40 domain (residues 1-327) (Schizosaccharomyces pombe, UniProt Q96WV5, F197K/I192K/L181K/L185K/L196K); experiment: biochemical; type: binding; details: Kinetic KD
pKd: −log10 of the molar value. Peptide text beside a SMILES is read from it.
propertyMeasured: pKd

1. CC(C)C[C@H](NC(=O)[C@H](CCCCN)NC(=O)[C@@H](NC(=O)CN)C(C)C)C(=O)N[C@@H](Cc1c[nH]cn1)C(=O)N[C@@H](Cc1ccc(O)cc1)C(=O)N[C@@H](C)C(=O)O [GVKLHYA] (H-GVKLHYA-OH)	5.94
2. CC(C)C[C@H](NC(=O)[C@H](CCCCN)NC(=O)[C@@H](NC(=O)CN)C(C)C)C(=O)N[C@@H](Cc1c[nH]cn1)C(=O)N[C@@H](Cc1ccc(O)cc1)C(=O)N[C@@H](CCC(=O)O)C(=O)O [GVKLHYE] (H-GVKLHYE-OH)	6.42
3. CC(C)C[C@H](NC(=O)[C@H](CCCCN)NC(=O)[C@@H](NC(=O)CN)C(C)C)C(=O)N[C@@H](Cc1c[nH]cn1)C(=O)N[C@@H](Cc1ccc(O)cc1)C(=O)N[C@@H](CCCNC(=N)N)C(=O)O [GVKLHYR] (H-GVKLHYR-OH)	5.89
4. CC(C)C[C@H](NC(=O)[C@H](CCCCN)NC(=O)[C@@H](NC(=O)CN)C(C)C)C(=O)N[C@@H](Cc1c[nH]cn1)C(=O)N[C@@H](C)C(=O)N[C@H](C(=O)O)[C@@H](C)O [GVKLHAT] (H-GVKLHAT-OH)	5.63

----------
biological target: αCOPI-WD40 domain (residues 1-327) (Schizosaccharomyces pombe, UniProt Q96WV5, F197K/I192K/L181K/L185K/L196K); assay: biochemical; type: binding; details: pH 6.5
Peptide text beside a SMILES is read from it.
propertyMeasured: koff (s⁻¹)

1. CC(C)C[C@H](NC(=O)[C@H](CCCCN)NC(=O)[C@@H](NC(=O)CN)C(C)C)C(=O)N[C@@H](Cc1c[nH]cn1)C(=O)N[C@@H](Cc1ccc(O)cc1)C(=O)N[C@H](C(=O)O)[C@@H](C)O [GVKLHYT] (H-GVKLHYT-OH)	0.145
2. CC(C)C[C@H](NC(=O)[C@H](CCCCN)NC(=O)[C@@H](NC(=O)CN)C(C)C)C(=O)N[C@@H](Cc1c[nH]cn1)C(=O)N[C@@H](Cc1ccc(O)cc1)C(=O)N[C@@H](CCC(=O)O)C(=O)O [GVKLHYE] (H-GVKLHYE-OH)	0.024
3. CC(C)C[C@H](NC(=O)[C@H](CCCCN)NC(=O)[C@@H](NC(=O)CN)C(C)C)C(=O)N[C@@H](Cc1c[nH]cn1)C(=O)N[C@@H](Cc1ccc(O)cc1)C(=O)N[C@@H](CCCNC(=N)N)C(=O)O [GVKLHYR] (H-GVKLHYR-OH)	0.177
4. CC(C)C[C@H](NC(=O)[C@H](CCCCN)NC(=O)[C@@H](NC(=O)CN)C(C)C)C(=O)N[C@@H](Cc1c[nH]cn1)C(=O)N[C@@H](C)C(=O)N[C@H](C(=O)O)[C@@H](C)O [GVKLHAT] (H-GVKLHAT-OH)	0.28

----------
Below, each entry is listed alongside its reported pKd.
molecular target: αCOPI-WD40 domain (residues 1-327) (Schizosaccharomyces pombe, UniProt Q96WV5, F197K/I192K/L181K/L185K/L196K); assay: biochemical; format: binding; details: Equilibrium KD
pKd: −log10 of the molar value. Peptide text beside a SMILES is read from it.
propertyMeasured: pKd

1) CC(C)C[C@H](NC(=O)[C@H](CCCCN)NC(=O)[C@@H](NC(=O)CN)C(C)C)C(=O)N[C@@H](Cc1c[nH]cn1)C(=O)N[C@@H](Cc1ccc(O)cc1)C(=O)N[C@H](C(=O)O)C(C)C [GVKLHYV] (H-GVKLHYV-OH)	5.49
2) CC(C)C[C@H](NC(=O)[C@H](CCCCN)NC(=O)[C@@H](NC(=O)CN)C(C)C)C(=O)N[C@@H](Cc1c[nH]cn1)C(=O)N[C@@H](Cc1ccc(O)cc1)C(=O)N[C@@H](C)C(=O)O [GVKLHYA] (H-GVKLHYA-OH)	5.95
3) CC(C)C[C@H](NC(=O)[C@H](CCCCN)NC(=O)[C@@H](NC(=O)CN)C(C)C)C(=O)N[C@@H](Cc1c[nH]cn1)C(=O)N[C@@H](C)C(=O)N[C@H](C(=O)O)[C@@H](C)O [GVKLHAT] (H-GVKLHAT-OH)	5.42
4) CC(C)C[C@H](NC(=O)[C@H](CCCCN)NC(=O)[C@@H](NC(=O)CN)C(C)C)C(=O)N[C@@H](Cc1c[nH]cn1)C(=O)N[C@@H](Cc1ccc(O)cc1)C(=O)N[C@@H](CCC(=O)O)C(=O)O [GVKLHYE] (H-GVKLHYE-OH)	6.51
